target: phosphorylated EGFR (pEGFR) (Homo sapiens (Human)); test: Detection of phosphorylated EGFR (pEGFR) by AlphaLISA in A431 cells; settings: A431 cells (10% FBS), 4 hours incubation, EGF 30 ng/mL for 10 minutes
Sequence (P00533 25-1210): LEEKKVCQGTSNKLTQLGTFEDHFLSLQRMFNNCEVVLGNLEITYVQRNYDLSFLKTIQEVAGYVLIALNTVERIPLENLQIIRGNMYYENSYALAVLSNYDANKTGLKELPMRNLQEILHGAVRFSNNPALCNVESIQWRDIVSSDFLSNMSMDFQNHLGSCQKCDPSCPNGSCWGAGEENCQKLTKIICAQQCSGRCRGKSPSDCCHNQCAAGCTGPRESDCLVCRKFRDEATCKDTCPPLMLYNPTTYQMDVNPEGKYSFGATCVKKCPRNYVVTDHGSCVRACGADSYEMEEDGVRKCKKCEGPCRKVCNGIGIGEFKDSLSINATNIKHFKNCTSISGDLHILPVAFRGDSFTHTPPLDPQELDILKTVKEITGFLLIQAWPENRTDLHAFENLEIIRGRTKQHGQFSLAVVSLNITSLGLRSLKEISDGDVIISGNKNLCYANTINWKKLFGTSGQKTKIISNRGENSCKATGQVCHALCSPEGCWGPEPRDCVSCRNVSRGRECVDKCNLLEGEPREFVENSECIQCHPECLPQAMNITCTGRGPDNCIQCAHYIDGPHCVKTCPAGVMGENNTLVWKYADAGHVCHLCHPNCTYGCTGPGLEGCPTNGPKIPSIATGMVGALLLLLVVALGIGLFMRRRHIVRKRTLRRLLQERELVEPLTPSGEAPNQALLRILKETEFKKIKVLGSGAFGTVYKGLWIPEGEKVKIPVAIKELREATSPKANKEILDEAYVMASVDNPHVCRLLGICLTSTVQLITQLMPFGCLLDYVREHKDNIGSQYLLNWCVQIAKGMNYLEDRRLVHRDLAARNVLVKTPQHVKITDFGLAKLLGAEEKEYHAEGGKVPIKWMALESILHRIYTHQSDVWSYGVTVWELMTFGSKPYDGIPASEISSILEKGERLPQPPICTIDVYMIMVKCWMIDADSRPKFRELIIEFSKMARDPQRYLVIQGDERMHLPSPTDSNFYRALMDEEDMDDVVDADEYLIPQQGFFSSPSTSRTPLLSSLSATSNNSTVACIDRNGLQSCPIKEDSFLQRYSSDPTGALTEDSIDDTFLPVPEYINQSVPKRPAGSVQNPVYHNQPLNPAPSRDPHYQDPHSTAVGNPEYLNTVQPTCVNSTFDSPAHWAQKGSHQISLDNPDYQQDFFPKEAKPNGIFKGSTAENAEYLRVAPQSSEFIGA
observable: IC50 (nM)
Report the figure in nM without appending any unit label.

## Task Give IC50 for C=CC(=O)N1CCN2CC1COc1cc3ncnc(Nc4ccc(Oc5ccc(CC)nc5)c(C)c4)c3nc12 (stereo in doubt) [Compound 22] tested on phosphorylated EGFR (pEGFR) (Homo sapiens (Human)).
## Result 684

## Task # return IC50 for Cc1cc(Nc2ncnc3cc4c(nc23)N2CCN(C(=O)/C=C/CN(C)C)C(CO4)C2)ccc1Oc1ccc2c(c1)ncn2C (stereo in doubt) [Compound 6] , test system: phosphorylated EGFR (pEGFR) (Homo sapiens (Human))
## Result 2190

## Task Look up phosphorylated EGFR (pEGFR) (Homo sapiens (Human)) data: IC50 of Cc1cc(Nc2ncnc3cc4c(nc23)N2CCN(C(=O)/C=C/[C@H]3CCCN3C)C(CO4)C2)ccc1Oc1ccn2ncnc2c1 (stereo in doubt) [Compound 27] , then report it.
## Result 5260

## Task Report value: IC50, system: phosphorylated EGFR (pEGFR) (Homo sapiens (Human)), molecule: C=CC(=O)N1CCN2CC1COc1cc3ncnc(Nc4ccc(Oc5ccc6c(c5)ncn6C)c(C)c4)c3nc12 (stereo in doubt) [Compound 14]
## Result 532

## Task // output IC50; input Cc1cc(Nc2ncnc3cc4c(nc23)N2CCN(C(=O)/C=C/CN(C)C)C(CO4)C2)ccc1Oc1ccn2ccnc2c1 (stereo in doubt) [Compound 34] ; system phosphorylated EGFR (pEGFR) (Homo sapiens (Human))
## Result 465

## Task State IC50 (phosphorylated EGFR (pEGFR) (Homo sapiens (Human))) of C=CC(=O)N1CCN2CC1COc1cc3ncnc(Nc4ccc(Oc5ccn6ncnc6c5)c(C)c4)c3nc12 (stereo in doubt) [Compound 1] .
## Result 450
